Just for reference, ChEMBL document CHEMBL4689842 is where these values come from.

# System: Fibroblast
# protocolSummary: Multiplex assay against human fibroblast
# Type: toxicity, cell-based
# conditionContext: 24 h, 1 µM, compound concentration 1 uM, replicate 1
outcomeMeasure: Population Healthy Nuclei (%)
Response body: numeric value in %, unit text excluded.

Here are 4 compounds together with their reported answers.
[[record]]
compound = "C=CCn1c(=O)c2cnc(Nc3ccc(N4CCN(C)CC4)cc3)nc2n1-c1cccc(C(C)(C)O)n1 [ADAVOSERTIB]"
outcomemeasure = "Population Healthy Nuclei (%)"
readoutvalue = 60

[[record]]
compound = "NC(=O)c1cccc(-c2cc(Nc3ccc(OC(F)(F)F)cc3)ncn2)c1"
outcomemeasure = "Population Healthy Nuclei (%)"
readoutvalue = 59

[[record]]
compound = "COc1cc(N2CCN(C)CC2)ccc1Nc1ncc2c(n1)N(C)c1ccccc1C(=O)N2C"
outcomemeasure = "Population Healthy Nuclei (%)"
readoutvalue = 57

[[record]]
compound = "CNC(=O)c1ccc(Nc2nc(OC3CCCC3)c3c(-c4ccc5nc(C)oc5c4)c[nH]c3n2)c(OC)c1"
outcomemeasure = "Population Healthy Nuclei (%)"
readoutvalue = 41


## Task // Population Healthy Nuclei (%) lookup, key: `Cl.O=C(c1ccc(Nc2nccc(-c3cc4ccccc4s3)n2)cc1)N1CCC(N2CCCC2)CC1`
## Result 47

## Task Entry CCn1cc(-c2ccnc3[nH]c(-c4cccc(CN(C)C)c4)cc23)c(-c2ccc(NC(=O)N(C)C)cc2)n1 [GSK-1070916] : reported Population Healthy Nuclei (%) = ?
## Result 56

## Task What does the record list as Population Healthy Nuclei (%) for `CCc1cccc(CC)c1NC(=O)c1nn(C)c2c1CCc1cnc(Nc3ccc(N4CCN(C)CC4)cc3OC)nc1-2` ?
## Result 29

## Task Given the compound `Cc1ccc2nc(NCCN)c3ncc(C)n3c2c1.O=C(O)C(F)(F)F.O=C(O)C(F)(F)F` , what is its reported Population Healthy Nuclei (%)?
## Result 59

## Task Please give the measured Population Healthy Nuclei (%) for this compound: CN1C2CCC1CC(OC(c1ccc(F)cc1)c1ccc(F)cc1)C2.Cl (stereo not given)
## Result 58

## Task Find the recorded Population Healthy Nuclei (%) belonging to `CCn1c(=O)c(-c2ccc(-c3cncs3)cc2Cl)cc2cnc(Nc3ccc(N4CCN(C)CC4)cc3)nc21` and report it.
## Result 47

---

# Test system: U2OS
# protocolSummary: Multiplex assay against U2OS
# Type: toxicity, cell-based
# conditionContext: human, 12 h, 1 µM, compound concentration 1 uM, replicate 2
Each entry below lists one item and its recorded Population Membrane Permeable-Phenotype (%) value.
Report as a plain number; the unit % is understood.

[[record]]
compound = "Cn1nc(C(F)(F)F)cc1-c1cnc(N2CCc3cc(S(=O)(=O)Nc4c(F)cc(Cl)cc4F)cc(N4CCCC4=O)c32)nc1 [TP-020]"
targetundertest = "U2OS"
readoutvalue = 15

[[record]]
compound = "O=C(Nc1ccc(-c2ccnc(Nc3ccc(N4CCOCC4)cc3)n2)cc1)[C@@H]1CCCN1"
targetundertest = "U2OS"
readoutvalue = 4


Could you now look at the following compound, please?
## Task Can you share its Population Membrane Permeable-Phenotype (%)? I mean this compound: `CNc1cc(Oc2cc(C(=O)Nc3cc(N4CCN(C)CC4)cc(C(F)(F)F)c3)ccc2C)ncn1`
## Result 10

---

# Tested on: Fibroblast
# protocolSummary: Multiplex assay against human fibroblast
# Assay type: toxicity, cell-based
# conditionContext: 12 h, 1 µM, compound concentration 1 uM, replicate 2
Entries and their Total Cell Count values follow.
In your answer, state the number alone without any accompanying words.

[[record]]
querysmiles = "CCCS(=O)(=O)Nc1ccc(F)c(C(=O)c2c[nH]c3ncc(Cl)cc23)c1F"
readoutvalue = 81

[[record]]
querysmiles = "O=C(Nc1ccc(-n2nc(-c3cccnc3)cc2C(F)(F)F)cn1)c1ccc(-c2ccccc2)c(F)c1"
readoutvalue = 69

[[record]]
querysmiles = "Cc1cc(C)c(S(=O)(=O)N(Cc2ccc(-c3cccc(S(C)(=O)=O)c3)cc2)Cc2ccc(C(F)(F)F)o2)c(C)c1"
readoutvalue = 72


## Task If you can, please state the reported Total Cell Count value of `Cc1ccc2nc(NCCN)c3ncc(C)n3c2c1.O=C(O)C(F)(F)F.O=C(O)C(F)(F)F` .
## Result 78
